tgt: GST-Ap-NF-kB RHD (Exaiptasia pallida (Aiptasia), UniProt A0A913YAJ5 2-422)
Sequence: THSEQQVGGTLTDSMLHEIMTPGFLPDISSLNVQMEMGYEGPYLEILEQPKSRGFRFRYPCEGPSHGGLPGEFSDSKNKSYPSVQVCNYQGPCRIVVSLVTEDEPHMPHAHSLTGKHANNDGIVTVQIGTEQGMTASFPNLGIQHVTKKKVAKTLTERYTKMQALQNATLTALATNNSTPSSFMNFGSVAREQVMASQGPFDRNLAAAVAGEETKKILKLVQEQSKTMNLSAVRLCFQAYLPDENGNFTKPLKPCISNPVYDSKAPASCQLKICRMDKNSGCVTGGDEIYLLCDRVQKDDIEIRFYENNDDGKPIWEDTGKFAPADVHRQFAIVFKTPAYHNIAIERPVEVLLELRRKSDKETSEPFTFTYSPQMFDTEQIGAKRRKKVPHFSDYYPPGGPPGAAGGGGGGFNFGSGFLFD
protocol: protein-binding microarray (PBM); PBM: ~300 nM protein, 6 mM HEPES pH 7.8, 80 mM KCl, 0.5 mM EDTA, 0.5 mM EGTA, 6% glycerol, 35 ng/ul poly-dIdC, 1% milk, 1 h, room temperature; high values mean tight binding
measurement-parameters: dsDNA, one strand shown
measured-property: binding signal (z-score)
Field format: number, assumed z-score, no unit text.

Worked set:
| sequence-record | measured-property | assay-value |
| --- | --- | --- |
| CCGATTAACATCACAACTTTCCCTGATGTTAATCGGGTCTTGATTCGCTTGACGCTGCTG | binding signal | 3.73 |
| CCGATTAACATCAGGACAGTCCCTGATGTTAATCGGGTCTTGATTCGCTTGACGCTGCTG | binding signal | 4.92 |
| CCGATTAACATCACGGGATTACCTGATGTTAATCGGGTCTTGATTCGCTTGACGCTGCTG | binding signal | 3.75 |
| CCGATTAACATCAGGACAGCCCCTGATGTTAATCGGGTCTTGATTCGCTTGACGCTGCTG | binding signal | 3.75 |

Sample `CCGATTAACATCAAGTTCCCCCCTGATGTTAATCGGGTCTTGATTCGCTTGACGCTGCTG` — what was its binding signal?
7.37

* * *

tgt: GST-Aq-NF-kB (Amphimedon queenslandica, UniProt A9Y5G7 2-389)
Sequence: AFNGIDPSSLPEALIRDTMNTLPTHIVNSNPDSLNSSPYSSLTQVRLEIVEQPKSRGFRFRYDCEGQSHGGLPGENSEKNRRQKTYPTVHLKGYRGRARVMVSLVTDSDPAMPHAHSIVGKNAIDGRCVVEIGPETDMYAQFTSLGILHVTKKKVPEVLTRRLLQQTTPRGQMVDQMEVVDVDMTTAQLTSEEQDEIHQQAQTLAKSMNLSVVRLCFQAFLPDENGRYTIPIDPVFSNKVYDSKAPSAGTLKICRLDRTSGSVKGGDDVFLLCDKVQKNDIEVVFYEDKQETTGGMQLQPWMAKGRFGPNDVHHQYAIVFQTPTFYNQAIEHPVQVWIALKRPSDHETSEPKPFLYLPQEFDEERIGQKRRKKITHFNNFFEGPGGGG
protocol: protein-binding microarray (PBM); PBM: ~300 nM protein, 6 mM HEPES pH 7.8, 80 mM KCl, 0.5 mM EDTA, 0.5 mM EGTA, 6% glycerol, 35 ng/ul poly-dIdC, 1% milk, 1 h, room temperature; high values mean tight binding
measurement-parameters: dsDNA, one strand shown
Label scheme, based on binding signal: low bin = under 4 z-score, mid bin = from 4 z-score up to 5 z-score, high bin = 5 z-score and over

Here's what some known entries look like.
| sequence-record | label |
| --- | --- |
| CCGATTAACATCACCCTGGGAAATGATGTTAATCGGGTCTTGATTCGCTTGACGCTGCTG | low bin |
| CCGATTAACATCAGGGTATTCCATGATGTTAATCGGGTCTTGATTCGCTTGACGCTGCTG | mid bin |
| CCGATTAACATCACGGGGATTTATGATGTTAATCGGGTCTTGATTCGCTTGACGCTGCTG | high bin |
| CCGATTAACATCAAGGGGGGTGGTGATGTTAATCGGGTCTTGATTCGCTTGACGCTGCTG | mid bin |

# bin label for `CCGATTAACATCACCAACCCCCCTGATGTTAATCGGGTCTTGATTCGCTTGACGCTGCTG`
low bin

Would you kindly repeat that for `CCGATTAACATCATCAGGGGAAATGATGTTAATCGGGTCTTGATTCGCTTGACGCTGCTG` ?
mid bin

Would you kindly repeat that for `CCGATTAACATCAAAAAAACTCCTGATGTTAATCGGGTCTTGATTCGCTTGACGCTGCTG` ?
low bin

Would you kindly repeat that for `CCGATTAACATCAGGGGAACTACTGATGTTAATCGGGTCTTGATTCGCTTGACGCTGCTG` ?
high bin

* * *

Each entry below lists one item and its recorded binding signal value.
tgt: GST-Aq-NF-kB (Amphimedon queenslandica, UniProt A9Y5G7 2-389)
Sequence: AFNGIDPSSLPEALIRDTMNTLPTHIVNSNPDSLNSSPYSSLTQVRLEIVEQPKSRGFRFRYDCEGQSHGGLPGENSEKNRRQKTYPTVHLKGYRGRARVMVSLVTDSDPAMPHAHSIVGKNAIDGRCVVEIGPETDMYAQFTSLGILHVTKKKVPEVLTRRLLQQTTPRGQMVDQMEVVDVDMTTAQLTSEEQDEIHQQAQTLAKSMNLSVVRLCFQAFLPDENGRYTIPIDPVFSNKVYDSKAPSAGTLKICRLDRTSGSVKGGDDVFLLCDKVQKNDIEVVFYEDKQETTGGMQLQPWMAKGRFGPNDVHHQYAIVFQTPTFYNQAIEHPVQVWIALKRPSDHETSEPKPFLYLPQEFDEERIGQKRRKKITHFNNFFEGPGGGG
protocol: protein-binding microarray (PBM); PBM: ~300 nM protein, 6 mM HEPES pH 7.8, 80 mM KCl, 0.5 mM EDTA, 0.5 mM EGTA, 6% glycerol, 35 ng/ul poly-dIdC, 1% milk, 1 h, room temperature; Ap Aiptasia and Nv Nematostella (sea anemones) / Co Capsaspora / Aq Amphimedon (sponge) / Dm Drosophila / Hu human; RHD is the Rel homology domain; high values mean tight binding
measurement-parameters: dsDNA, one strand shown
Field format: number, assumed z-score, no unit text.

Worked set:
| sequence-record | tgt | value-unit | binding signal |
| --- | --- | --- | --- |
| CCGATTAACATCAGGGGACAACCTGATGTTAATCGGGTCTTGATTCGCTTGACGCTGCTG | GST-Aq-NF-kB (Amphimedon queenslandica, UniProt A9Y5G7 2-389) | z-score | 5.18 |
| CCGATTAACATCAAGCCTGTCCCTGATGTTAATCGGGTCTTGATTCGCTTGACGCTGCTG | GST-Aq-NF-kB (Amphimedon queenslandica, UniProt A9Y5G7 2-389) | z-score | 1.77 |
| CCGATTAACATCAGAAAACCCCCTGATGTTAATCGGGTCTTGATTCGCTTGACGCTGCTG | GST-Aq-NF-kB (Amphimedon queenslandica, UniProt A9Y5G7 2-389) | z-score | 8.84 |
| CCGATTAACATCAGGGGAGTACATGATGTTAATCGGGTCTTGATTCGCTTGACGCTGCTG | GST-Aq-NF-kB (Amphimedon queenslandica, UniProt A9Y5G7 2-389) | z-score | 3.06 |
| CCGATTAACATCACCTTTTCCCCTGATGTTAATCGGGTCTTGATTCGCTTGACGCTGCTG | GST-Aq-NF-kB (Amphimedon queenslandica, UniProt A9Y5G7 2-389) | z-score | 4.69 |
| CCGATTAACATCAAGGGGAGTCCTGATGTTAATCGGGTCTTGATTCGCTTGACGCTGCTG | GST-Aq-NF-kB (Amphimedon queenslandica, UniProt A9Y5G7 2-389) | z-score | 5.29 |
| CCGATTAACATCACAAAATCCCCTGATGTTAATCGGGTCTTGATTCGCTTGACGCTGCTG | GST-Aq-NF-kB (Amphimedon queenslandica, UniProt A9Y5G7 2-389) | z-score | 8 |
| CCGATTAACATCAGGGTTTTTAGTGATGTTAATCGGGTCTTGATTCGCTTGACGCTGCTG | GST-Aq-NF-kB (Amphimedon queenslandica, UniProt A9Y5G7 2-389) | z-score | 2.58 |

Sample `CCGATTAACATCAGGGAAGAACCTGATGTTAATCGGGTCTTGATTCGCTTGACGCTGCTG` — what was its binding signal?
5.54

Would you kindly repeat that for `CCGATTAACATCACGGAAACACCTGATGTTAATCGGGTCTTGATTCGCTTGACGCTGCTG` ?
2.29

Would you kindly repeat that for `CCGATTAACATCAGGTATTTCCATGATGTTAATCGGGTCTTGATTCGCTTGACGCTGCTG` ?
3.5

Would you kindly repeat that for `CCGATTAACATCAGGGGAGAACCTGATGTTAATCGGGTCTTGATTCGCTTGACGCTGCTG` ?
5.51

Would you kindly repeat that for `CCGATTAACATCAGGGAAAAAACTGATGTTAATCGGGTCTTGATTCGCTTGACGCTGCTG` ?
5.31

Would you kindly repeat that for `CCGATTAACATCACAGTTTCCCCTGATGTTAATCGGGTCTTGATTCGCTTGACGCTGCTG` ?
4.9

Would you kindly repeat that for `CCGATTAACATCACGGGTTTCCCTGATGTTAATCGGGTCTTGATTCGCTTGACGCTGCTG` ?
5.5

Would you kindly repeat that for `CCGATTAACATCAGGGGGGTGTATGATGTTAATCGGGTCTTGATTCGCTTGACGCTGCTG` ?
4.24

Would you kindly repeat that for `CCGATTAACATCAAAAACTTTCCTGATGTTAATCGGGTCTTGATTCGCTTGACGCTGCTG` ?
2.68

Would you kindly repeat that for `CCGATTAACATCACAAAGTCCCCTGATGTTAATCGGGTCTTGATTCGCTTGACGCTGCTG` ?
6.4

Where these numbers come from: paper PMC5700166
